Would you mind telling me the reported Kd of each entry?
# assayed system: HLA-B*57:01
# method notes: IEDB peptide-MHC binding, purified MHC/direct/fluorescence; filed as Kd, often an IC50 or EC50 that approximates it; bounds were set here for any values at or beyond the usual limits of such assays
# run conditions: source organism: Marburg virus - Musoke, Kenya, 1980

Supply reported Kd belonging to this sequence: NRWKSWFSY
≥ 20 µM

Complete the entry with Kd for IFDDLQGSL
≥ 20 µM

----------
# assayed system: HLA-A*01:01
# method notes: IEDB peptide-MHC binding, purified MHC/competitive/radioactivity; filed as Kd, often an IC50 or EC50 that approximates it; bounds were set here for any values at or beyond the usual limits of such assays
# run conditions: source organism: Lassa virus Josiah
pKd: −log10 of the molar value.
measured quantity: pKd

Tell me its pKd given EGKDTPGGY as the entry.
≤ 4.42
